Test system: SK-MEL-5 melanoma
EXPERIMENT SUMMARY: NCI tumour cell line growth inhibition, 48 h
ASSAY METRIC: TGI

Please fill in: TGI reported for CN(C)C(=S)N/N=C\C=N/NC(=S)N(C)C = > 100 µM

TGI in this record for COc1ccc(C2=C(OC(=O)N(C)C)c3cccn3-c3cc(C(F)(F)F)ccc3S2)cc1 : > 10 µM

// sample COc1cc2c(cc1C[N+](C)(C)CSc1ccccc1)-c1ccccc1CC2 , its TGI was 2.39 µM

# TGI of COC(=O)N[C@H]1CCc2c(Br)c(OC)c(OC)c(OC)c2-c2ccc(SC)c(=O)cc21 = 0.0182 µM

Measured TGI, COc1ccc2c(c1)[nH]c(=O)c1c3cc(C)c(C)cc3cn21 : 0.0763 µM

The compound listed as CCOC(=O)/C(=C\NCC(O)c1ccccc1)c1nc2ccccc2[nH]1 (stereo unspecified) has a reported TGI of 22.9 µM

TGI measured on Cn1c(=O)c2c(nc(NCCCCl)n2CC(=O)O)n(C)c1=O = > 100 µM

Cn1ccnc1S/C(=C\C=C(C#N)C#N)c1ccc(Cl)cc1 yielded TGI of 3.59 µM

Documented TGI of NCCC(N)C(=O)O (stereo unspecified) : > 100 µM

Entry COC1=CC(=O)c2ccccc2C1(CCC=C(C)C)C1=NC(C)(C)CO1 (stereo unspecified) , TGI reported as > 100 µM

# TGI (compound: CC1OC(OCC2OC(Oc3c(-c4ccc(O)cc4)oc4cc(O)cc(O)c4c3=O)C(OC3OCC(O)(CO)C3O)C(O)C2O)C(O)C(O)C1O (stereo unspecified) ) is > 100 µM

# TGI (compound: Nn1c(-c2ccccc2)nc2ccc(Br)cc2c1=O ) is > 100 µM

Looking up CC(=O)OC[C@H]1O[C@@H](O[C@H]2[C@H](OC(C)=O)C=CO[C@@H]2COC(C)=O)C(OC(C)=O)[C@H]2OC(C)(C)O[C@H]21 (stereo partly specified) , I see its TGI listed as > 100 µM

Value of measured TGI for the entry CCCCCc1cc(OC(=O)c2c(O)cc(OC)cc2CCCCC)cc(O)c1C(=O)O : 28.5 µM

Lookup result for Cc1ccc(S(=O)(=O)N/C(=C\C=C\c2ccccc2)C(=O)C(C)(C)C)cc1 ; measured TGI: > 100 µM

Sure, the documented TGI for COc1cccc2cc(C)c(C(=O)c3ccccc3)nc12 is > 100 µM
